# credit: patent US20240239907A1

# target_or_test_system: T1, human CXCR6 (human, UniProt O00574 1-342)
# T1 construct: also called hu-CXCR6; wild type human CXCR6
# T1 sequence (O00574 whole entry): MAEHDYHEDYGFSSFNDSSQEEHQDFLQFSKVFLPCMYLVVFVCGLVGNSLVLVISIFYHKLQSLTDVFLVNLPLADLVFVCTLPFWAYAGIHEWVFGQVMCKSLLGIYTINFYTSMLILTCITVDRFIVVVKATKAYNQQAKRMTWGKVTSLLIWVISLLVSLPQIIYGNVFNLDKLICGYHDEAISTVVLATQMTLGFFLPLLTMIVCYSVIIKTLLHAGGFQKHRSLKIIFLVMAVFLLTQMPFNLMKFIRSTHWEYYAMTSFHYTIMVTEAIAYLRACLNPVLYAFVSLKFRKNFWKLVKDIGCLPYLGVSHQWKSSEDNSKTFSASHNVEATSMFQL
# experiment_description: screening on cells overexpressing CXCR6, one single concentration, yes/no
endpoint_name: binding result

Let me know recorded binding result for COXs-11E5 (antibody, V domains shown, Mouse-derived; tested at the screening stage) VH: EVQLVESGGGLVQPKGSLKLSCTASGFSFDTYAMNWVRQAPGKGLEWVARIRSKSKNYATYYADSVKDRFTVSRDDSANILYLQMNNLKTEDTAIYYCLRQGSFDYWGQGTTLTVSS VL: DVVMTQTPLSLPVSLGDQASISCRSSQRIVHTDGNTYLYWYLQKPGQSPKLLIYRVSNRFSGVPDRFSGSGSGTDFILKISRVEAEDMGIYYCFQGTHFPYTFGGGTKLEIK , thanks.
binds

Let me know recorded binding result for Beacon1-G12 (antibody, V domains shown, Mouse-derived) VH: EIQLVQSGPELKKPGKTVKISCKASGYTFTTYGMSWVKQAPGKALKWMGWINTYSGVPTYADDFKGRFAFSLETSASTAYLQINNLKNEDTATYFCAIRRLSITLHGMDYWGQGTSVTVS VL: DIQMTQSPASLSVSVGETVTITCRASENIYSNLAWYQQKQGKSPQLLVYGATNLADGVPSRFSGSGSGTQYSLKINSLQSEDFGSYYCQHFWGTPWTFGGGTKLEIK , thanks.
binds
